Let's look at some Ki data for Carbonic anhydrase 12 (Homo sapiens) that I collected from the literature.

Worked examples follow.
> print(dat)
                                  structure  measured.property  recorded.value
1  NS(=O)(=O)c1ccc2c(c1)CCN2C(=O)c1cccc(F)c1                 Ki         > 10 µM
2  NC1=NC2(CCCC2)N(c2ccc(S(=O)(=O)Nc3ccccn3)cc2)C(N)=N1                 Ki         > 10 µM

# input for lookup
Which Ki is reported for this compound? CCOC(=O)c1ccc(NC(=S)NC(=O)c2ccc(Cl)c(Cl)c2)cc1
> 100 µM

###

Let's look at some Ki data for UniProt O43570 that I collected from the literature.
Give bare numbers, in nM.

> print(dat)
                                   compound  measured.target  recorded.value
1  CSCC[C@H](NC(=O)OC(C)(C)C)C(=O)Nc1ccc2c(c1)NC(=O)CC2 (stereo in doubt)   UniProt O43570            8500
2  NS(=O)(=O)c1ccc(NC(=O)c2cc3occc3n2Cc2ccc(Cl)cc2)cc1   UniProt O43570            37.2
3  CSCC[C@@H](NC(=O)OCc1ccccc1)C(=O)NCCc1ccc(S(N)(=O)=O)cc1   UniProt O43570            53.9
4  COc1cc(/C=C/C(=O)c2ccc(-c3cc4ccccc4oc3=O)nc2C)cc(OC)c1OC   UniProt O43570           12900
5  NS(=O)(=O)c1ccc(NC(=S)NC(=O)c2ccc(Cl)c(Cl)c2)cc1   UniProt O43570            88.1
6                Oc1ccc(/C=C/c2ccccc2)cc1Cl   UniProt O43570            2700
7  Cc1ccc(NC(=O)NCc2cn(CCCCS(N)(=O)=O)nn2)cc1   UniProt O43570            6730
8  CN(CCCCCCOC(=O)c1c2ccccc2cc2ccccc12)CCCOC(=O)c1ccc(S(N)(=O)=O)cc1   UniProt O43570            31.3

I need Ki for every entry listed below, if you could help.
1. Cc1cc(=O)oc2c(CN3CCN(Cc4c(O)ccc5c(C)cc(=O)oc45)CC3)c(O)ccc12
2. Cc1cc(=O)oc2c(CN3CCN(Cc4ccc5c(c4)OCO5)CC3)c(O)ccc12
3. NS(=O)(=O)c1ccc(N2N=C(c3ccc(O)cc3)CC2c2ccc(Br)cc2)cc1 (stereo not shown)
4. NS(=O)(=O)c1ccc(NC(=S)NCc2cn(CCCS(=O)(=O)[O-])nn2)cc1.[Na+]

1. 8.5
2. 8.5
3. 7.6
4. 9.4
